# tested_system: TRAF6/Uev1A/Ubc13 (Homo sapiens, UniProt Q9Y4K3)
# Sequence (Q9Y4K3 1-522): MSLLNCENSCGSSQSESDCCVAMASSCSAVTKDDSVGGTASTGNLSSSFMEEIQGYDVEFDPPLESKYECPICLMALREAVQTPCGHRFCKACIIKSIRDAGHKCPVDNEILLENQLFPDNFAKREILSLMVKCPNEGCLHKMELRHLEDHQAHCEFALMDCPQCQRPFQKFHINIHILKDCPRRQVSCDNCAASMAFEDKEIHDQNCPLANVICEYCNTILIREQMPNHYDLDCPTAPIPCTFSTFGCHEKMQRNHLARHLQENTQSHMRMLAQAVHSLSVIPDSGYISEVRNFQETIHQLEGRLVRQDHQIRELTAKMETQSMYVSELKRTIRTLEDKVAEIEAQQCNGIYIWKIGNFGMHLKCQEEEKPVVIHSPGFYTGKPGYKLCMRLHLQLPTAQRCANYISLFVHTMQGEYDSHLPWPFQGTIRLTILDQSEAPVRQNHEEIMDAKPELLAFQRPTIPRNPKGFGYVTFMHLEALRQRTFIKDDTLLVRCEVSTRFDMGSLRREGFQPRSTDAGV
# test_summary: TRAF6/Uev1A/Ubc13 plate-based ubiquitin ligase assay
readout_label: IC50

Observe how each entry below is paired with its result.
N#Cc1ccccc1N1CCN(S(=O)(=O)c2c(Cl)ccc3nonc23)CC1	≥ 20 µM
O=C(OCc1ccccc1)N1CCN(c2ccc([N+](=O)[O-])c3nonc23)CC1	≥ 20 µM
O=[N+]([O-])c1ccc(N2CCN(c3ncccn3)CC2)c2nonc12	1 to 20 µM

Batch request: IC50 per item, same order as input.
1. CCOC(=O)c1cc(C#N)c(C)nc1N1CCN(c2ccc([N+](=O)[O-])c3nonc23)CC1
2. CC1CC(C)CN(S(=O)(=O)c2ccc(Sc3cccc4cccnc34)c3nonc23)C1 (centres unmarked)

Response given:
1 to 20 µM
1 to 20 µM
